Readout name: melting point

Before answering, review these 5 worked examples.
CCCOC1=C(I)C(=O)C[C@@H](C)[C@]12Oc1c(Cl)c(OC)cc(OC)c1C2=O : 98 to 100 °C
COc1cc(OC)c2c(c1Cl)O[C@]1(C2=O)C(OCc2ccc(C)cc2)=CC(=O)C[C@H]1C : 176 to 178 °C
COc1cc(OC)c2c(c1Cl)O[C@]1(C2=O)C(OCc2cccc(I)c2)=CC(=O)C[C@H]1C : 171 to 174 °C
COc1cc(OC)c2c(c1Cl)O[C@]1(C2=O)C(OCc2ccccc2I)=CC(=O)C[C@H]1C : 167 to 169 °C
COc1cc(OC)c2c(c1Cl)O[C@]1(C2=O)C(OCc2ccc(I)cc2)=CC(=O)C[C@H]1C : 166 to 168 °C

Please find the next compound below.
Inquiry: Consider the compound COc1cc(OC)c2c(c1Cl)O[C@]1(C2=O)C(OCc2ccc(Cl)cc2)=CC(=O)C[C@H]1C and give its measured melting point.
Reply text: 173 to 175 °C
